Measured values drawn from patent US20230416248A1 for this set.

# Measured target: BRM (Homo sapiens)
# Construct: made in house; host or cells: High Five insect cells
# Sequence (P51531 whole entry): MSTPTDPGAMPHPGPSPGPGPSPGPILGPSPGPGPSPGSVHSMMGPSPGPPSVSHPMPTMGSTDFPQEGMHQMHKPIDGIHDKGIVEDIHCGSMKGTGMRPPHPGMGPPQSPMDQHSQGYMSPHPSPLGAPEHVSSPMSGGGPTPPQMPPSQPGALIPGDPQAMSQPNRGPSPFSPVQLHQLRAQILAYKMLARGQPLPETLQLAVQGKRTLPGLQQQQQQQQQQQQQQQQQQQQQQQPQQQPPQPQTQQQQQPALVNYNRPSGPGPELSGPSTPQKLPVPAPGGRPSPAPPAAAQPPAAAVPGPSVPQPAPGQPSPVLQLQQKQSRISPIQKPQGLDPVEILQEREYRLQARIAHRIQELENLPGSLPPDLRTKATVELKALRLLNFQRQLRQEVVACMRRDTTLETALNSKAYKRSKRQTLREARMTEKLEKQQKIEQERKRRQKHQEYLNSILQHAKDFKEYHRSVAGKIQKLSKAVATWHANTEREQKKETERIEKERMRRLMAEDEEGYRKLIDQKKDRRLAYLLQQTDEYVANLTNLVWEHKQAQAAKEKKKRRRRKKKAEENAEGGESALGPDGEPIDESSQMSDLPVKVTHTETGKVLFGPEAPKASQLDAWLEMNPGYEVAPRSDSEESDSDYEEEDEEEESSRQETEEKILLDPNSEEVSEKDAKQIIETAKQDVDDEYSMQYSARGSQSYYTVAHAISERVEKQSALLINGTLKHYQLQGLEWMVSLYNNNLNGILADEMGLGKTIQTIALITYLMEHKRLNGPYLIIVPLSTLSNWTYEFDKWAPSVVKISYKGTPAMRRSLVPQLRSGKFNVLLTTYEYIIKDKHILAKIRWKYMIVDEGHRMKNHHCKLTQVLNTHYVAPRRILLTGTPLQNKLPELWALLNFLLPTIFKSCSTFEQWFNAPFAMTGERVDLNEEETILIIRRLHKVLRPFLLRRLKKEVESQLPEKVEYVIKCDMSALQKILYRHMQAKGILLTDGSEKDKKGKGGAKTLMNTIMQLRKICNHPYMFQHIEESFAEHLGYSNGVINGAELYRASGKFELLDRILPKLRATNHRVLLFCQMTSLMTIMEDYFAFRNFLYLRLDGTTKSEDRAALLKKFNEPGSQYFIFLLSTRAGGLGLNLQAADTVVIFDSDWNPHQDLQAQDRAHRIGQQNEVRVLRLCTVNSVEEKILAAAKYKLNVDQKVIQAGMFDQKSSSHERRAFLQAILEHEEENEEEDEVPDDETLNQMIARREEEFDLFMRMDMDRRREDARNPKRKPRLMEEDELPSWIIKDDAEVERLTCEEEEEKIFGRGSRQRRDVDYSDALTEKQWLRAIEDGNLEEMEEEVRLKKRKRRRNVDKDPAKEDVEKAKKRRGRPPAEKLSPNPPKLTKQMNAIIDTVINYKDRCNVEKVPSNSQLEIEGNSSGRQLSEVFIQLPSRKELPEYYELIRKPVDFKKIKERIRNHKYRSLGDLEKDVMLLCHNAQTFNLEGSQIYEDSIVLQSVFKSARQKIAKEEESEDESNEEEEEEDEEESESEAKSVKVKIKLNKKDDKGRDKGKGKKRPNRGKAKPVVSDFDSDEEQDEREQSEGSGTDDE
# Assay explanation: ATPase catalytic activity of BRM, ADP-Glo in vitro biochemical assay
# Condition context: selectivity ratio BRG1 IC50 / BRM IC50
// values below are reported Ratio* (BRG1 IC50 (μM) divided by BRM IC50 (μM))
// print number alone

CN(c1ccccn1)c1ccc2cnc(CNC(=O)c3ccc4c(c3)S(=O)(=O)CCOC4)cc2n1 [Compound 108] ... 7.43
COC[C@H](C)S(=O)(=O)c1cccc(C(=O)NCc2cc3nc(-c4cncc(C5CC5)n4)ccc3cn2)c1 [Compound 260] ... 7.17
O=C(NCc1cc2nc(-c3cccc(C4CC4)n3)ccc2cn1)c1cc(F)c2c(c1)S(=O)(=O)CCOC2 [Compound 63] ... 29.53
COC[C@H](C)N(C)c1cccc(-c2ccc3cnc(CNC(=O)c4ccc5c(c4)S(=O)(=O)CCOC5)cc3n2)n1 [Compound 70] ... 11.02
CS(=O)(=O)c1cc(C(=O)NCc2cc3nc(-c4cncc(C5CC5)n4)ccc3cn2)cnc1C(F)F [Compound 277] ... 8.72

Which Ratio* (BRG1 IC50 (μM) divided by BRM IC50 (μM)) is reported with BRM (Homo sapiens) for this entry: O=C(NCc1cc2c(cn1)CCN(c1cncc(C3CC3)n1)C2)c1ccc2c(c1)S(=O)(=O)CCOC2 [Compound 290] ?
7.19

Which Ratio* (BRG1 IC50 (μM) divided by BRM IC50 (μM)) is reported with BRM (Homo sapiens) for this entry: O=C(NCc1cc2nc(-c3cccc(N4CCC4)n3)ccc2cn1)c1ccc2c(c1)S(=O)(=O)CCOC2 [Compound 304] ?
14.43

Which Ratio* (BRG1 IC50 (μM) divided by BRM IC50 (μM)) is reported with BRM (Homo sapiens) for this entry: Cn1ccc2ccc(-c3ccc4cnc(CNC(=O)c5ccc6c(c5)S(=O)(=O)CCOC6)cc4n3)nc21 [Compound 136] ?
7.15

Which Ratio* (BRG1 IC50 (μM) divided by BRM IC50 (μM)) is reported with BRM (Homo sapiens) for this entry: O=C(NCc1cc2nc(-c3cccc(N4CC5(C4)CC5(F)F)n3)ccc2cn1)c1ccc2c(c1)S(=O)(=O)CCOC2 [Compound 128] ?
10.99

Which Ratio* (BRG1 IC50 (μM) divided by BRM IC50 (μM)) is reported with BRM (Homo sapiens) for this entry: CN(c1cccc(-c2ccc3cnc(CNC(=O)c4ccc5c(c4)S(=O)(=O)CCOC5)cc3n2)n1)C1CCOCC1 [Compound 174] ?
9.24

---

# Measured target: BRM (Homo sapiens)
# Construct: made in house; host or cells: High Five insect cells
# Assay explanation: ATPase catalytic activity of BRM, ADP-Glo in vitro biochemical assay
# Condition context: ratio of BRG1 IC50 to BRM IC50
// values below are reported Ratio*
// print number alone

C[C@H]1CCc2ccc(-c3ccc4cnc(CNC(=O)c5ccc6c(c5)S(=O)(=O)CCOC6)cc4n3)nc2N1C [Compound 468] ... 7.67

Quick check: Ratio* of C/C(F)=C/c1ccc(C(=O)NCc2cc3nc(-c4cccc(N5C[C@@H](C)O[C@@H](C)C5)n4)ccc3cn2)cc1S(C)(=O)=O [Compound 475] ?
7.79

Quick check: Ratio* of CCO[C@@H](C)c1ccc2c(n1)N(c1ccc3cnc(CNC(=O)c4ccc5c(c4)S(=O)(=O)CCOC5)cc3n1)CCC2 [Compound 635] ?
15.08

Quick check: Ratio* of O=C(NCc1cc2nc(N3CCCc4ccc(C(F)F)cc43)ccc2cn1)c1ccc2c(c1)S(=O)(=O)CCOC2 [Compound 532] ?
18.84

Quick check: Ratio* of COc1cnc2c(c1)OCCN2c1ccc2cnc(CNC(=O)c3ccc4c(c3)S(=O)(=O)CCOC4)cc2n1 [Compound 619] ?
11.17

Quick check: Ratio* of CN1CC[C@H](Oc2cccc(-c3ccc4cnc(CNC(=O)c5ccc6c(c5)S(=O)(=O)CCOC6)cc4n3)n2)C1 [Compound 342] ?
15.24

Quick check: Ratio* of C[C@@H]1COCc2ncc(C(=O)NCc3cc4nc(-c5cccc(C6CC6)n5)ccc4cn3)cc2S1(=O)=O [Compound 455] ?
1.00

---

# Measured target: BRG-1 (Homo sapiens, UniProt P51532)
# Construct: made in house; host or cells: High Five insect cells
# Sequence (P51532 whole entry): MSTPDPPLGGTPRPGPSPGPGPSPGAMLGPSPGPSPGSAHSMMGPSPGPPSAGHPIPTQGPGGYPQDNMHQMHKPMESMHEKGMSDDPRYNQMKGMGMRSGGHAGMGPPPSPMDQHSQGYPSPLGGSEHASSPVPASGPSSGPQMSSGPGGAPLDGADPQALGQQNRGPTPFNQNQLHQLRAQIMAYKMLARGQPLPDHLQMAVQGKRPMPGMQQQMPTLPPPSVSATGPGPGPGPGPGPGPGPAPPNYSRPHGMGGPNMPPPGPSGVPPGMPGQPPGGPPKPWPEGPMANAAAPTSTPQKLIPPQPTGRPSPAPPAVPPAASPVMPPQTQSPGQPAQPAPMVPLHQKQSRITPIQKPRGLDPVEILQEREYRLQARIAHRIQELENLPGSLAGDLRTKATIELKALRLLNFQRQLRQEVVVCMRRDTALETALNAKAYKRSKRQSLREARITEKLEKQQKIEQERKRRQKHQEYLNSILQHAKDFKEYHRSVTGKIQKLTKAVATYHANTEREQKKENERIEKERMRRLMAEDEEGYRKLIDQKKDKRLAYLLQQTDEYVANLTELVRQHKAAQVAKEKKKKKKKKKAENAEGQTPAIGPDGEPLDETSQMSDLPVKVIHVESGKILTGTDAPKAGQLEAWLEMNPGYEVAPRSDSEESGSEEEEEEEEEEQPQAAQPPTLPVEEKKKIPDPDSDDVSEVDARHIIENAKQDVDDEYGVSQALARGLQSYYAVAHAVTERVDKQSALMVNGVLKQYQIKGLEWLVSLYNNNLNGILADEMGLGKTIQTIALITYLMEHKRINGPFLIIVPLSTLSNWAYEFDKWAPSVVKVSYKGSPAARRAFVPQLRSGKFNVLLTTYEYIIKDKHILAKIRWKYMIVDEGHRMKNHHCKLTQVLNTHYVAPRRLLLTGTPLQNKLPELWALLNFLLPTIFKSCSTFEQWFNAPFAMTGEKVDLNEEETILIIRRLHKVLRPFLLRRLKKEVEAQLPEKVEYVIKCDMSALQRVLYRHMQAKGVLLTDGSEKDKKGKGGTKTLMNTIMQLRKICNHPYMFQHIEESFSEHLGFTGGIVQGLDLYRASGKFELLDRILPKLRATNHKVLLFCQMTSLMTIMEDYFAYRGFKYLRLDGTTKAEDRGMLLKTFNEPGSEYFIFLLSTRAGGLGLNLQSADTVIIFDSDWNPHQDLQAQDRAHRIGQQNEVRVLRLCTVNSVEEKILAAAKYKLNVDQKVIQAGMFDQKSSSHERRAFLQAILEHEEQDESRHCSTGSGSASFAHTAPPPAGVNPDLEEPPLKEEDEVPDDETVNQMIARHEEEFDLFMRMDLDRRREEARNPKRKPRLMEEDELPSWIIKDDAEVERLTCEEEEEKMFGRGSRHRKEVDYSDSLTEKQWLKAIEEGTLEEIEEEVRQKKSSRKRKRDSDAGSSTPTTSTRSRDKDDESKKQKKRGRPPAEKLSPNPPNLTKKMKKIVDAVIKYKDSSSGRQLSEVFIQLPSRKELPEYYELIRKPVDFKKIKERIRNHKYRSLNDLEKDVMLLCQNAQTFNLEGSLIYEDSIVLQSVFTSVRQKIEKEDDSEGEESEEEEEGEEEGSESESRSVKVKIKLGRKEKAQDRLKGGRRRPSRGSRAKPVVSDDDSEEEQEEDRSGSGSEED
# Assay explanation: ATPase catalytic activity of BRG-1, ADP-Glo in vitro biochemical assay
# Condition context: ADP-Glo ATPase assay, 30 nM BRG-1, 400 μM ATP; read-out: BRG1 IC50
pIC50: −log10 of the molar value.
Respond with y for pIC50 values of 6 and above, n for values below.

COC[C@@H](C)Nc1cccc(-c2ccc3cnc(CNC(=O)c4ccc(C(F)F)c(S(C)(=O)=O)c4)cc3n2)n1 ... n
O=C(NCc1cc2nc(-c3cccc(N4CCC(F)CC4)n3)ccc2cn1)c1ccc2c(c1)S(=O)(=O)CCOC2 ... y
COC[C@H](C)N(C)c1cccc(-c2ccc3cnc(CNC(=O)c4ccc5c(c4)S(=O)(=O)CCOC5)cc3n2)n1 ... y
O=C(NCc1cc2nc(-c3cccc(C4CC4)n3)ccc2nn1)c1ccc2c(c1)S(=O)(=O)CCOC2 ... y
O=C(NCc1cc2nc(-c3cccc4c3OCCN4CC(F)F)ccc2cn1)c1ccc2c(c1)S(=O)(=O)CCOC2 ... y

Okay, next one:
Could you verify whether the entry O=C(NCc1cc2nc(-c3cncc(C4CC4)n3)ccc2cn1)c1ccc2c(c1)S(=O)(=O)CCCO2 shows pIC50 of no less than 6?
n

---

// values below are reported IC50
# Measured target: BRM (Homo sapiens)
# Construct: made in house; host or cells: High Five insect cells
# Assay explanation: ATPase catalytic activity of BRM, ADP-Glo in vitro biochemical assay
# Condition context: ADP-Glo ATPase assay, 30 nM BRM, 400 μM ATP
# Protocol: The ATPase catalytic activity of BRM or BRG-1 was measured by an in vitro biochemical assay using ADP-Glo™ (Promega, V9102). The ADP-Glo™ kinase assay is performed in two steps once the reaction is complete. The first step is to deplete any unconsumed ATP in the reaction. The second step is to convert the reaction product ADP to ATP, which will be utilized by the luciferase to generate luminesce and be detected by a luminescence reader, such as Envision. […]
All answers are understood in nM, so give the number only.

The following compounds have reported results that may help.
O=C(NCc1cc2nc(-c3ccnc([C@H]4CC4(F)F)n3)ccc2cn1)c1ccc2c(c1)S(=O)(=O)CCOC2 ... 61.2
O=C(NCc1cc2cc(-c3cccc(N4CCC4)n3)ccc2cn1)c1cc(F)c2c(c1)S(=O)(=O)CCOC2 ... 16.3

Which IC50 is reported with BRM (Homo sapiens) for this entry: C[C@]1(c2cccc(-c3ccc4cnc(CNC(=O)c5ccc6c(c5)S(=O)(=O)CCOC6)cc4n3)n2)CC1(F)F ?
136

Which IC50 is reported with BRM (Homo sapiens) for this entry: C[C@@H]1CN(c2cccc(-c3ccc4cnc([C@H](C)NC(=O)c5ccc6c(c5)S(=O)(=O)CCOC6)cc4n3)n2)C[C@H](C)O1 ?
10.3

---

# Measured target: BRM (Homo sapiens)
# Construct: made in house; host or cells: High Five insect cells
# Assay explanation: ATPase catalytic activity of BRM, ADP-Glo in vitro biochemical assay
# Condition context: ADP-Glo ATPase assay, 30 nM BRM, 400 μM ATP
// values below are reported pIC50
To interpret pIC50, take it as minus log10 of a concentration measured in moles per litre.

The following molecules have reported results that may help.
CS(=O)(=O)c1cncc(C(=O)NCc2cc3nc(-c4cncc(C5CC5)n4)ccc3cn2)c1 [Compound 306] ... 6.07
C[C@@H]1CN(c2cccc(-c3ccc4nnc(CNC(=O)c5ccc(C(F)F)c(S(C)(=O)=O)c5)cc4n3)n2)C[C@H](C)O1 [Compound 40] ... 8.05

Quick check: pIC50 of O=C(NCc1cc2nc(N3CCOc4cc(Cl)cc(F)c43)ccc2cn1)c1cc(F)c2c(c1)S(=O)(=O)CCOC2 [Compound 773] ?
7.41

Quick check: pIC50 of C[C@@H]1CN(c2nccc(-c3ccc4cnc(CNC(=O)c5ccc(Cl)c(S(C)(=O)=O)c5)cc4n3)n2)C[C@H](C)O1 [Compound 180] ?
7.75

Quick check: pIC50 of O=C(NCc1cc2nc(-c3cccc(OC4CC4)n3)ccc2cn1)c1ccc2c(c1)S(=O)(=O)CCOC2 [Compound 241] ?
7.21

Quick check: pIC50 of COCCN(C)c1cccc(-c2ccc3cnc(CNC(=O)c4ccc5c(c4)S(=O)(=O)CCOC5)cc3n2)n1 [Compound 145] ?
8.44

Quick check: pIC50 of COc1cc(F)cc2c1CCCN2c1ccc2cnc(CNC(=O)c3ccc4c(c3)S(=O)(=O)CCOC4)cc2n1 [Compound 750] ?
8.40

Quick check: pIC50 of O=C(NCc1cc2nc(N3CCOc4cc(C5CC5)ccc43)ccc2nn1)c1ccc2c(c1)S(=O)(=O)CCOC2 [Compound 775] ?
7.90

Quick check: pIC50 of CN1CCOc2c(-c3ccc4cnc(CNC(=O)c5ccc6c(c5)S(=O)(=O)CCOC6)cc4n3)ccnc21 [Compound 58] ?
7.01

Quick check: pIC50 of CO[C@@H](C)c1cccc(-c2ccc3cnc(CNC(=O)c4ccc5c(c4)S(=O)(=O)CCOC5)cc3n2)n1 [Compound 69] ?
6.58

Quick check: pIC50 of COC[C@H](C)N(C)c1cccc(-c2ccc3cnc(CNC(=O)c4ccc5c(c4)S(=O)(=O)CCOC5)cc3n2)n1 [Compound 70] ?
7.43

Quick check: pIC50 of Cc1ccnc2c1CCN2c1ccc2cnc(CNC(=O)c3ccc4c(c3)S(=O)(=O)CCOC4)cc2n1 [Compound 743] ?
7.56

Quick check: pIC50 of O=C(NCc1cc2nc(-c3cccc(C4(C(F)F)CC4)n3)ccc2cn1)c1ccc2c(c1)S(=O)(=O)CCOC2 [Compound 208] ?
7.37

Quick check: pIC50 of C[C@@H]1CN(c2cccc(-c3ccc4cnc(CNC(=O)c5ccc(C(F)F)c(S(C)(=O)=O)c5)cc4n3)n2)C[C@@H](C)O1 [Compound 158] ?
7.88
